Just for reference, ChEMBL document CHEMBL1212696 is where these values come from.

assay: Binding affinity to wild type Angiococcus disciformis PKS/NRPS R20A/R29A mutant expressed in Escherichia coli BL21 (DE3) by surface plasmon resonance assay
value-kind: Kd

Exercise: Please look up its Kd: `CCCC(=O)OCN(C(=O)[C@@H](NC(=O)[C@H]1CCCCN1C)[C@@H](C)CC)[C@H](C[C@@H](OC(C)=O)c1nc(C(=O)N[C@@H](Cc2ccc(O)cc2)C[C@H](C)C(=O)O)cs1)C(C)C`
Solution: 596 µM
